Target: human HER2 (23-652) (Homo sapiens, UniProt P04626)
Assay: Surface plasmon resonance (SPR) for assessment of peptide affinity, human HER2
Type: binding
Parameters: towards human HER2 (23-652) and mouse HER2 (23-653); made in house
Conditions: SPR, human HER2 extracellular domain, 25° C., 1:1 binding model; read-out: huHER2-SPR-ONC KD
Method: Each protein was immobilized either onto a SA sensorchip (Cytiva, BR-1005-31) or CM5 sensorchip (Cytiva, BR-1005-30) to a density of 800-2000 RU. […] For the assay setup the same conditions (flow rate, running buffer, peptide dilution) as described above were used. In a first step the Anti Fc IgG Ab (from Human Antibody Capture Kit, Ref. 29234600, Cytiva) was diluted into acetate pH 5.0 at 25 ug/mL and immobilized at a flow rate of 10 uL/min over 360 s to reach a density around 6000 RU. […]
Where a name gives a salt, the structure may show the parent alone. Starred links: 1 amine or outer side, 2 acyl side, 3 side chain; linkers in the order of their positions; H or OH if unused. Positions of bridges follow the written chain, without caps; N, C: chain ends. Non-standard residues stand in square brackets, D forms with d. Residues, ends and D or L forms follow the SMILES beside them. Trp(5-OH) = N[C@@H](Cc1c[nH]c2ccc(O)cc12)C(=O)O; NMePhe(4-F) = CN[C@@H](Cc1ccc(F)cc1)C(=O)O; β2hAla(2S) = C[C@@H](CN[*:1])C(=O)[*:2]; NMehPhe = CN[C@@H](CCc1ccccc1)C(=O)O; NMeE = CN[C@@H](CCC(=O)O)C(=O)O; Gly(cPr) = N[C@H](C(=O)O)C1CC1; NMeK = CN[C@@H](CCCCN)C(=O)O; NMeC = CN[C@@H](CS)C(=O)O; Dap = NC[C@H](N)C(=O)O; X5 = O=C(C[*:2])[*:1]
Observed Property: Kd (nM)
Answer with a number only, understood to be in nM.

Test system human HER2 (23-652) (Homo sapiens, UniProt P04626); read-out Kd; what value for COCCOCCOCCOCCOCCOCCOCCOCCOCCOCCOCCOCCC(=O)N[C@H]1CCCC(=O)NC[C@@H](C(=O)N(C)[C@@H](Cc2ccc(F)cc2)C(=O)N[C@@H](CCCCN)C(N)=O)N(C)C(=O)[C@H](C2CC2)NC(=O)[C@H](Cc2c[nH]c3ccccc23)NC(=O)[C@H](Cc2c[nH]c3ccc(O)cc23)NC(=O)[C@H](CCCCNC(C)=O)N(C)C(=O)[C@H](CCc2ccccc2)N(C)C(=O)[C@H](CO)NC(=O)[C@H](Cc2ccc(O)cc2)NC1=O [Example A43, TFA salt] ?
0.2

Test system human HER2 (23-652) (Homo sapiens, UniProt P04626); read-out Kd; what value for CC(=O)NCCCC[C@H]1C(=O)N[C@@H](Cc2c[nH]c3ccc(O)cc23)C(=O)N[C@@H](Cc2c[nH]c3ccccc23)C(=O)N[C@@H](C2CC2)C(=O)N(C)[C@H](C(=O)N(C)[C@@H](Cc2ccc(F)cc2)C(N)=O)CSCC(=O)NC[C@H](NC(C)=O)C(=O)N[C@@H](Cc2ccc(O)cc2)C(=O)N[C@@H](CO)C(=O)N(C)[C@@H](CCc2ccccc2)C(=O)N1C [Example A51] (Ac-[Dap]YS[NMehPhe][NMeK](Ac)[Trp(5-OH)]W[Gly(cPr)][NMeC][NMePhe(4-F)]-NH2; linker 1-9 via X5) ?
7.3

Test system human HER2 (23-652) (Homo sapiens, UniProt P04626); read-out Kd; what value for CC(=O)N[C@H]1CCCC(=O)NC[C@@H](C(=O)N(C)[C@@H](Cc2ccc(F)cc2)C(=O)N[C@@H](CCCCNC(=O)CN2CCN(CC(=O)O)CCN(CC(=O)O)CCN(CC(=O)O)CC2)C(N)=O)N(C)C(=O)[C@H](C2CC2)NC(=O)[C@H](Cc2c[nH]c3ccccc23)NC(=O)[C@H](Cc2c[nH]c3ccc(O)cc23)NC(=O)[C@H](CCCCNC(=O)CC(=O)O)N(C)C(=O)[C@H](CCc2ccccc2)N(C)C(=O)[C@H](CO)NC(=O)[C@H](Cc2ccc(O)cc2)NC1=O [Example C19] ?
5.5

Test system human HER2 (23-652) (Homo sapiens, UniProt P04626); read-out Kd; what value for CC(=O)NCCCC[C@H]1C(=O)N[C@@H](Cc2c[nH]c3ccc(O)cc23)C(=O)N[C@@H](Cc2c[nH]c3ccccc23)C(=O)N[C@@H](C2CC2)C(=O)N(C)[C@H](C(=O)N(C)[C@@H](Cc2ccc(F)cc2)C(=O)N2CCC[C@H]2C(N)=O)CNC(=O)CCC[C@H](NC(C)=O)C(=O)N[C@@H](Cc2ccc(O)cc2)C(=O)N[C@@H](CO)C(=O)N(C)[C@@H](CCc2ccccc2)C(=O)N1C [Example A2] ?
0.4

Test system human HER2 (23-652) (Homo sapiens, UniProt P04626); read-out Kd; what value for CC(=O)NCCCC[C@H]1C(=O)N[C@@H](Cc2c[nH]c3ccc(O)cc23)C(=O)N[C@@H](Cc2c[nH]c3ccccc23)C(=O)N[C@@H](C2CC2)C(=O)N(C)[C@H](C(=O)N(C)[C@@H](Cc2ccc(F)cc2)C(N)=O)CCC(=O)NC[C@H](C)C(=O)N[C@@H](Cc2ccc(O)cc2)C(=O)N[C@@H](CO)C(=O)N(C)[C@@H](CCc2ccccc2)C(=O)N1C [Example A22] ([β2hAla(2S)]YS[NMehPhe][NMeK](Ac)[Trp(5-OH)]W[Gly(cPr)][NMeE][NMePhe(4-F)]-NH2; lactam N-9) ?
9.7

###

target: human HER2 (23-652) (Homo sapiens, UniProt P04626); experiment: TR-FRET competition assay for peptide potency, human HER2; assay type: binding; set-up: towards human HER2 (23-652) and mouse HER2 (23-653); made in house; host or cells: mammalian cells; conditions: read-out: huHER2 TR-FRET IC50
pIC50: −log10 of the molar value. Counter-ions that a name gives are not always drawn. Positions of bridges follow the written chain, without caps; N, C: chain ends. Non-standard residues stand in square brackets, D forms with d. Residues, ends and D or L forms follow the SMILES beside them. Trp(5-OH) = N[C@@H](Cc1c[nH]c2ccc(O)cc12)C(=O)O; NMePhe(4-F) = CN[C@@H](Cc1ccc(F)cc1)C(=O)O; Lys(N3) = [N-]=[N+]=NCCCC[C@H](N)C(=O)O; NMehPhe = CN[C@@H](CCc1ccccc1)C(=O)O; NMeAhp(2) = CCCCC[C@H](NC)C(=O)O; NMeE = CN[C@@H](CCC(=O)O)C(=O)O; Aad = N[C@@H](CCCC(=O)O)C(=O)O; Gly(cPr) = N[C@H](C(=O)O)C1CC1; Aoc(2) = CCCCCC[C@H](N)C(=O)O; Ahp(2) = CCCCC[C@H](N)C(=O)O; NMeK = CN[C@@H](CCCCN)C(=O)O; NMeDap = CN[C@@H](CN)C(=O)O; NMeS = CN[C@@H](CO)C(=O)O; Dap = NC[C@H](N)C(=O)O
Observed Property: pIC50

// returns reported pIC50 for input CC(=O)NCCCC[C@H]1C(=O)N[C@@H](Cc2c[nH]c3ccc(O)cc23)C(=O)N[C@@H](Cc2c[nH]c3ccccc23)C(=O)N[C@@H](C2CC2)C(=O)N(C)[C@H](C(=O)N(C)[C@@H](Cc2ccc(F)cc2)C(=O)N[C@@H](CCCCN=[N+]=[N-])C(N)=O)CNC(=O)CCC[C@H](NC(C)=O)C(=O)N[C@@H](Cc2ccc(O)cc2)C(=O)N[C@@H](CO)C(=O)N(C)[C@@H](CCc2ccccc2)C(=O)N1C [Example A74] (Ac-[Aad]YS[NMehPhe][NMeK](Ac)[Trp(5-OH)]W[Gly(cPr)][NMeDap][NMePhe(4-F)][Lys(N3)]-NH2; lactam 1-9)
10.00

// returns reported pIC50 for input CC(=O)N[C@H]1CNC(=O)CC[C@@H](C(=O)N(C)[C@@H](Cc2ccc(F)cc2)C(N)=O)N(C)C(=O)[C@H](C2CC2)NC(=O)[C@H](Cc2c[nH]c3ccccc23)NC(=O)[C@H](Cc2c[nH]c3ccc(O)cc23)NC(=O)[C@H](CO)N(C)C(=O)[C@H](CCc2ccccc2)N(C)C(=O)[C@H](CO)NC(=O)[C@H](Cc2ccc(O)cc2)NC1=O [Example A19] (Ac-[Dap]YS[NMehPhe][NMeS][Trp(5-OH)]W[Gly(cPr)][NMeE][NMePhe(4-F)]-NH2; lactam 1-9)
< 6.00

// returns reported pIC50 for input CN1C(=O)[C@H](CO)NC(=O)[C@H](Cc2ccc(O)cc2)NC(=O)[C@@H](N)Cc2cccc(c2)CC(=O)NC[C@@H](C(=O)N(C)[C@@H](Cc2ccc(F)cc2)C(N)=O)N(C)C(=O)[C@H](C2CC2)NC(=O)[C@H](Cc2c[nH]c3ccccc23)NC(=O)[C@H](Cc2c[nH]c3ccc(O)cc23)NC(=O)[C@H](CO)N(C)C(=O)[C@@H]1CCc1ccccc1 [Example A31, TFA salt]
6.07

// returns reported pIC50 for input CCCCC[C@@H]1NC(=O)[C@H](Cc2c[nH]c3ccc(O)cc23)NC(=O)[C@H](CCCCNC(C)=O)N(C)C(=O)[C@H](CCc2ccccc2)N(C)C(=O)[C@H](CO)NC(=O)[C@H](Cc2ccc(O)cc2)NC(=O)[C@@H](NC(C)=O)CCCC(=O)NC[C@@H](C(=O)N(C)[C@@H](Cc2ccc(F)cc2)C(N)=O)N(C)C(=O)[C@H](C2CC2)NC1=O [Example A17] (Ac-[Aad]YS[NMehPhe][NMeK](Ac)[Trp(5-OH)][Ahp(2)][Gly(cPr)][NMeDap][NMePhe(4-F)]-NH2; lactam 1-9)
< 6.00

// returns reported pIC50 for input CC(=O)N[C@H]1CCC(=O)NC[C@@H](C(=O)N(C)[C@@H](Cc2ccc(F)cc2)C(N)=O)N(C)C(=O)[C@H](C2CC2)NC(=O)[C@H](Cc2c[nH]c3ccccc23)NC(=O)[C@H](Cc2cnn3ccccc23)NC(=O)[C@H](CO)N(C)C(=O)[C@H](CCc2ccccc2)N(C)C(=O)[C@H](CO)NC(=O)[C@H](Cc2ccc(O)cc2)NC1=O [Example A16]
< 6.00

// returns reported pIC50 for input CC(=O)N[C@H]1CCCC(=O)NC[C@@H](C(=O)N(C)[C@@H](Cc2ccc(F)cc2)C(=O)N[C@@H](CCCCNC(=O)CN2CCN(CC(=O)O)CCN(CC(=O)O)CCN(CC(=O)O)CC2)C(N)=O)N(C)C(=O)[C@H](C2CC2)NC(=O)[C@H](Cc2c[nH]c3ccccc23)NC(=O)[C@H](Cc2c[nH]c3ccc(O)cc23)NC(=O)[C@H](CCCCNC(=O)CO)N(C)C(=O)[C@H](CCc2ccccc2)N(C)C(=O)[C@H](CO)NC(=O)[C@H](Cc2ccc(O)cc2)NC1=O [Example B5]
> 10.00

// returns reported pIC50 for input COCCOCCOCCOCCOCCOCCOCCOCCOCCOCCOCCOCCC(=O)N[C@H]1CCCC(=O)NC[C@@H](C(=O)N(C)[C@@H](Cc2ccc(F)cc2)C(=O)N[C@@H](CCCCN)C(N)=O)N(C)C(=O)[C@H](C2CC2)NC(=O)[C@H](Cc2c[nH]c3ccccc23)NC(=O)[C@H](Cc2c[nH]c3ccc(O)cc23)NC(=O)[C@H](CCCCNC(C)=O)N(C)C(=O)[C@H](CCc2ccccc2)N(C)C(=O)[C@H](CO)NC(=O)[C@H](Cc2ccc(O)cc2)NC1=O [Example A43, TFA salt]
> 10.00

// returns reported pIC50 for input CCCCC[C@@H](C(N)=O)N(C)C(=O)[C@@H]1CNC(=O)CCC[C@H](NC(C)=O)C(=O)N[C@@H](Cc2ccc(O)cc2)C(=O)N[C@@H](CO)C(=O)N(C)[C@@H](CCc2ccccc2)C(=O)N(C)[C@@H](CCCCNC(C)=O)C(=O)N[C@@H](Cc2c[nH]c3ccc(O)cc23)C(=O)N[C@@H](Cc2c[nH]c3ccccc23)C(=O)N[C@@H](C2CC2)C(=O)N1C [Example A15] (Ac-[Aad]YS[NMehPhe][NMeK](Ac)[Trp(5-OH)]W[Gly(cPr)][NMeDap][NMeAhp(2)]-NH2; lactam 1-9)
7.57

// returns reported pIC50 for input CC(=O)NCCCC[C@H]1C(=O)N[C@@H](Cc2c[nH]c3ccc(O)cc23)C(=O)N[C@@H](Cc2c[nH]c3ccccc23)C(=O)N[C@@H](C2CC2)C(=O)N(C)[C@H](C(=O)N(C)[C@@H](Cc2ccc(F)cc2)C(=O)N[C@@H](CCCCNC(=O)CN2CCN(CC(=O)O)CCN(CC(=O)O)CCN(CC(=O)O)CC2)C(N)=O)CNC(=O)CCC[C@H](NC(C)=O)C(=O)N[C@H](Cc2ccc(O)cc2)C(=O)N[C@H](CO)C(=O)N(C)[C@@H](CCc2ccccc2)C(=O)N1C [Example B4]
< 6.00

// returns reported pIC50 for input CCCCCC[C@@H]1NC(=O)[C@H](Cc2c[nH]c3ccc(O)cc23)NC(=O)[C@H](CCCCNC(C)=O)N(C)C(=O)[C@H](CCc2ccccc2)N(C)C(=O)[C@H](CO)NC(=O)[C@H](Cc2ccc(O)cc2)NC(=O)[C@@H](NC(C)=O)CCCC(=O)NC[C@@H](C(=O)N(C)[C@@H](Cc2ccc(F)cc2)C(N)=O)N(C)C(=O)[C@H](C2CC2)NC1=O [Example A18] (Ac-[Aad]YS[NMehPhe][NMeK](Ac)[Trp(5-OH)][Aoc(2)][Gly(cPr)][NMeDap][NMePhe(4-F)]-NH2; lactam 1-9)
< 6.00
